Sourced from the RNAGym collection of RNA variant scans (doi:10.7554/elife.80360)

B1: CPEB3 Ribozyme (parent)
chain: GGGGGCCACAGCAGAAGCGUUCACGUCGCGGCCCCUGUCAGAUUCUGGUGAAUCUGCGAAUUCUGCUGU

Variants of: B1
run-description: self-cleavage, relative activity (ratio to wild type); higher = more cleavage; co-transcriptional
Give 1 (yes) when the value for self-cleavage is at least 0.2. Give 0 (no) when it is less.

{"mutant-label": "C34G C57U", "answer-label": "1 (yes)"}
{"mutant-label": "C35U C54U", "answer-label": "1 (yes)"}
{"mutant-label": "G25C U69A", "answer-label": "1 (yes)"}
{"mutant-label": "G11A C22G", "answer-label": "0 (no)"}
{"mutant-label": "A10U U64A", "answer-label": "1 (yes)"}
{"mutant-label": "A15C U46G", "answer-label": "1 (yes)"}
{"mutant-label": "C18G G19C", "answer-label": "0 (no)"}
{"mutant-label": "U26A U62G", "answer-label": "1 (yes)"}
{"mutant-label": "G11A C57G", "answer-label": "1 (yes)"}
{"mutant-label": "C7G C12U", "answer-label": "1 (yes)"}
{"mutant-label": "G11C C63U", "answer-label": "1 (yes)"}
{"mutant-label": "C33A A52U", "answer-label": "1 (yes)"}
{"mutant-label": "C39U G65C", "answer-label": "1 (yes)"}
{"mutant-label": "G31A U46G", "answer-label": "1 (yes)"}
{"mutant-label": "C32U A51G", "answer-label": "1 (yes)"}
{"mutant-label": "G48U U55A", "answer-label": "1 (yes)"}
{"mutant-label": "G31C C32G", "answer-label": "1 (yes)"}
{"mutant-label": "G31A C34U", "answer-label": "1 (yes)"}
{"mutant-label": "C7A C54G", "answer-label": "0 (no)"}
{"mutant-label": "U21A C24U", "answer-label": "1 (yes)"}
{"mutant-label": "G25A U55A", "answer-label": "1 (yes)"}
{"mutant-label": "A16G U46A", "answer-label": "1 (yes)"}
{"mutant-label": "G30U U67G", "answer-label": "1 (yes)"}
{"mutant-label": "C7U C34G", "answer-label": "1 (yes)"}
{"mutant-label": "G17A A40G", "answer-label": "1 (yes)"}
{"mutant-label": "C32U U67G", "answer-label": "1 (yes)"}
{"mutant-label": "U36G", "answer-label": "1 (yes)"}
{"mutant-label": "G47A G58U", "answer-label": "1 (yes)"}
{"mutant-label": "G4U G5A", "answer-label": "0 (no)"}
{"mutant-label": "G30C G31U", "answer-label": "1 (yes)"}
{"mutant-label": "G25U U49A", "answer-label": "0 (no)"}
{"mutant-label": "G25C C63A", "answer-label": "1 (yes)"}
{"mutant-label": "C7G A40C", "answer-label": "0 (no)"}
{"mutant-label": "C9G A51C", "answer-label": "1 (yes)"}
{"mutant-label": "A10G U38G", "answer-label": "0 (no)"}
{"mutant-label": "G28C G56A", "answer-label": "0 (no)"}
{"mutant-label": "U21C A42C", "answer-label": "1 (yes)"}
{"mutant-label": "G5C C12G", "answer-label": "0 (no)"}
{"mutant-label": "A60C U69G", "answer-label": "1 (yes)"}
{"mutant-label": "G19C G47A", "answer-label": "0 (no)"}
{"mutant-label": "U38A A51G", "answer-label": "1 (yes)"}
{"mutant-label": "G31U U49G", "answer-label": "1 (yes)"}
{"mutant-label": "U36A", "answer-label": "1 (yes)"}
{"mutant-label": "G1C C24G", "answer-label": "0 (no)"}
{"mutant-label": "U26A U62C", "answer-label": "1 (yes)"}
